Where these numbers come from: ChEMBL document CHEMBL1201862

tested on: IGROV-1; test: NCI tumour cell line growth inhibition, 48 h
Activity calls are given as the source filed them. Cut-off read from the data, not from the text of the source: active = GI50 up to about 1.1 µM and inactive = higher.
Give one outcome, nothing more. List: Yes (active), No (inactive)

Worked cases, answers included:
compound=Cc1ccc(OCCn2cc(Nc3ccccc3)c(=O)n(CCOc3ccc(C)cc3)c2=O)cc1 measurement_target=IGROV-1 group=No
compound="C/C=C/C1=CC(=O)C(O)C1O (configuration not stated)" measurement_target=IGROV-1 group=No
compound="Cc1c2oc3c(C)cnc(C(=O)NC4C(=O)NC(C(C)C)C(=O)N5CCCC5C(=O)N(C)CC(=O)N(C)C(C(C)C)C(=O)OC4C)c3nc-2c(C(=O)NC2C(=O)NC(C(C)C)C(=O)N3CCCC3C(=O)N(C)CC(=O)N(C)C(C(C)C)C(=O)OC2C)c(N)c1=O (configuration not stated)" measurement_target=IGROV-1 group=Yes

How did this test come out for C[C@H](CC[C@@H](O)C(C)(C)O)[C@H]1CC[C@@]2(C)[C@@H]3CC=C4[C@@H](CC[C@H](OC5OC(CO)C(O)C(O)C5O)C4(C)C)[C@]3(C)C(=O)C[C@]12C (some centres not stated) ?
No

Called result for `O=C(c1ccccc1)c1c(CNCc2ccccc2)n(C(=O)c2ccccc2)c2ccccc12`
No

---

tested on: LOX IMVI; experiment: NCI tumour cell line growth inhibition, 48 h
The source made the active and inactive calls. Rule as the data show it: active = GI50 up to about 1.1 µM and inactive = higher.
measured.metric: GI50

molecule=Cc1ccc(Cl)c2c(=O)cc(-c3ccccc3)[nH]c12 measured_metric=GI50 value_observed="39.7 µM (inactive)"
molecule="CO[C@H]1[C@@H](O)[C@@H](C)O[C@@H](O[C@H]2CC[C@@]3(C)[C@H](CC[C@@H]4[C@@H]3CC[C@]3(C)[C@@H](C5=CC(=O)OC5)CC[C@]43O)C2)[C@@H]1O [ODOROSIDE H]" measured_metric=GI50 value_observed="0.00689 µM (active)"
molecule="Cc1c2oc3c(C)cnc(C(=O)NC4C(=O)NC(C(C)C)C(=O)N5CCCC5C(=O)N(C)CC(=O)N(C)C(C(C)C)C(=O)OC4C)c3nc-2c(C(=O)NC2C(=O)NC(C(C)C)C(=O)N3CCCC3C(=O)N(C)CC(=O)N(C)C(C(C)C)C(=O)OC2C)c(N)c1=O (stereo not drawn)" measured_metric=GI50 value_observed="0.348 µM (active)"
molecule="CCC(C(=O)C(=O)OC)P1(=O)OC(C)(C)CN1C(C)(C)C (stereo not drawn)" measured_metric=GI50 value_observed="> 100 µM (inactive)"
molecule="O=C1CCCc2cc3c(cc21)CC1(C3)Cc2ccc3c(c2C1)C(=O)CCC3 (stereo not drawn)" measured_metric=GI50 value_observed="11.7 µM (inactive)"

Return GI50 for the following molecule: `O=c1ssc2ncccc12`
16.3 µM (inactive)

Indicate its recorded GI50; the molecule in question is COc1cc(O)c2c(c1)C(O)C(O)CC1OC1C(=O)/C=C/CC(C)OC2=O (stereo not drawn)
3.88 µM (inactive)

Tell me GI50 reported for `CC(C)=CCC[C@@H](C)[C@H]1CC[C@@]2(C)[C@@H]3CC[C@H]4C(C)(C)[C@@H](O)CC[C@@]45C[C@@]35CC[C@]12C`
21 µM (inactive)

---

# key: entry, value: GI50
tested on: RPMI-8226; test: NCI tumour cell line growth inhibition, 48 h
Calls of active or inactive are those of the source. No stated cut-off is given here; in the data, active = GI50 up to about 1.1 µM and inactive = higher.

Consider the worked cases shown below.
structure=CN(C)CCCNc1c2c(=O)n(C)c(=O)nc-2n(C)c2ccccc12 measurement_target=RPMI-8226 value_observed="7.1 µM (inactive)"
structure=Cc1ccc(C2(c3ccc(C)c(O)c3C)CCN(C)CC2)c(C)c1O measurement_target=RPMI-8226 value_observed="> 100 µM (inactive)"

For the compound `O=C1NC(=S)NC(=O)C1=Cc1cccc2cc3ccccc3cc12` , give its measured GI50 value.
1.24 µM (inactive)

Give reported GI50 value for `COc1cccc(OC)c1NC(=O)C(=O)Nn1c(NNC(=O)c2ccncc2)nc2ccccc2c1=O`
> 100 µM (inactive)

Recall and state the measured GI50 for `O=c1[nH]nc(Cc2ccc([N+](=O)[O-])cc2)[nH]1` .
> 100 µM (inactive)

Identify GI50 associated with the compound `COc1cc(CNCc2cc(OC)c(OC)c(OC)c2)cc(OC)c1OC`
9.73 µM (inactive)

Specify measured GI50 for `Cc1cccc2c1CC1(Cc3c(C)cccc3C1=O)C2=O` .
> 100 µM (inactive)
